Target: MAGE-A11:PCF11 interaction (GST-MAGE-A11 and FAM-PCF11_4) (Homo sapiens, UniProt P43364)
Construct: GST-MAGE-A11 MHD (human MAGE-A11 MHD amino acid 218-429); made in house; host or cells: E. coli BL21(DE3)
Sequence (P43364 218-429): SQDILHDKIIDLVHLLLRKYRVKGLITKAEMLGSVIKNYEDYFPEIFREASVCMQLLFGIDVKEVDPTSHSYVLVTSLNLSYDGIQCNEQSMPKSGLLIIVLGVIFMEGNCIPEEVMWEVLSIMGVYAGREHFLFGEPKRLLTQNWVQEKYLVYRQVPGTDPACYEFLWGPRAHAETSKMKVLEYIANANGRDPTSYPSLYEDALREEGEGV
Test: TR-FRET primary / single point screen at 15 µM
Format: binding
Details: single point TR-FRET screening of 797 quinoline compounds against MAGE-A11:PCF11
Parameter Measured: percent inhibition (TR-FRET)

1. Cc1ccc(S(=O)(=O)c2cnc3ccc(C)cc3c2N2CCN(c3ccc(F)cc3)CC2)cc1	-4.068
2. COc1ccc(N2CCN(c3c(S(=O)(=O)c4ccc(Cl)cc4)cnc4ccc(C)cc34)CC2)cc1	-3.122
3. CN(C)CC(=O)Nc1c2c(nc3ccccc13)N(C)CC2	17.0397
